# tgt: T1, recombinant human sPLA2-GIB (mature secreted form of group IB pancreatic phospholipase A2) (human, UniProt P04054 23-148)
# T1 construct: Genbank NP_000919 printed for human PLA2-GIB; also called sPLA2-IB; mature sPLA2-GIB
# assay_procedure: competition ELISA on coated sPLA2-IB; competitor biotinylated 1C11
measured_quantity: percentage of signal (%)
Express it in %; write the number only.

The following binders have reported results that may help.
| binder | percentage of signal (%) |
| --- | --- |
| #24B2 (antibody, IgG2a, V domains shown) VH: DVQVQESGPGLVKPSQTVSLNCTVTGHSITDDNYYWSWIRLVSGSKLEWIGYITSSGSTDINPSLKSRISITRDISKNQFFLHLNSVTAEDTATYYCARDSTDGDFYFEKWGQGTTLTVSS VL: DIVLTQSPASLAVSLGQRATISCRASESVDNYGISFMHWYQQKPGQPPKLLIYRASNLESGIPARFSGSGSRTDFTLTINPVETDDVATYYCQQSSRDLFTFGGGTKLEIKR | 61 |
| #7A10 (antibody, IgG1, V domains shown, also called monoclonal antibody 7A10; #7A10 mAb) VH: QVQLKESGPGLVAPSQSLSITCTVSGFSLTSYGVSWVRQPPGKGLEWLGVIWGDGSTNYHSALISRLSISKDNSKSQVFLKLNSLQTDDTATYYCAKEGGLRRGVYFDYWGQGTTLTVSS VL: DIQMNQSPSSLSASLGDTITITCRASQGISIWLDWYQQKPGNIPKLLIYKASNLHTGVPPRFSGSGSGTDFTLTISSLQPEDIATYYCLQSQSYPLTFGAGTKLELKR | 19 |
| #14G9 (antibody, IgG1, V domains shown, also called monoclonal antibody 14G9; #14G9 mAb) VH: QVQLQQPGAELVKPGASVKLSCKASGYTFTNYWIHWVKRRPGQGLEWIGNIDPSDTRTHYNQKFKDKATLAVDKSSSTAYMQLSSLTSEDSAVFYCARQTLYYEALDYWGQGTTLTVSS VL: DIVMTQSHKLMSTSVGDRVSITCKASQDVSTAVAWYQEKPGQSPKLLIYWASTRHTGVPNRFTGSRSGTDYTLTISSVQAEDLALYYCQQDYSTPPTFGAGTKLELKR | 64 |

As a next step, examine the binder that follows.
Inquiry: What value of percentage of signal has been recorded for this entry: #22C6 (antibody, IgG2a, V domains shown) VH: EVQLQESGPGLVKPSQTVSLNCTVTGHSITDDNYYWSWIRLVSGSKLEWIGYITSAGNTDNNPSLKSRISITRDISKNQFFLHLSSVTAEDTATYYCARDSTDGDFYFEKWGQGTTLTVSS VL: EIVLTQSPTTMAASPGEKITITCSVSSSISPNFLHWYQQKPGFSPKLLIFRTSNLASGVPTRFSGSGSGTSYSLTIGTMEAEDVATYYCHQGNSLPLTFGAGTKLELKR
Reply text: 56
